# ASSAY DETAILS: Therapeutic drug monitoring: steady-state residual plasma concentrations by LC-MS/MS
# Type: in vivo, human
# RUN CONDITIONS: adults
Record form. Attribute: Dose–weight-adjusted mean concentration. Fill in for each entry.
# output: numeric value plus its unit

Recorded results for 3 compounds are shown here.
CCc1cc2c(cc1N1CCC(N3CCOCC3)CC1)C(C)(C)c1[nH]c3cc(C#N)ccc3c1C2=O: 17.3 ng/mL/mg/kg
Cn1cnc2c(F)c(Nc3ccc(Br)cc3F)c(C(=O)NOCCO)cc21: 48.8 ng/mL/mg/kg
O=C(c1ccc(F)c(F)c1Nc1ccc(I)cc1F)N1CC(O)([C@@H]2CCCCN2)C1: 145.7 ng/mL/mg/kg

Now take the following compound into account.
Any idea what Dose–weight-adjusted mean concentration was measured for C=CC(=O)Nc1cc(Nc2nccc(-c3cn(C)c4ccccc34)n2)c(OC)cc1N(C)CCN(C)C ?
196.7 ng/mL/mg/kg

* * *

So I've got a bunch of compounds here, and I need their Dose–weight-adjusted mean concentration values.
# ASSAY DETAILS: Therapeutic drug monitoring: steady-state residual plasma concentrations by LC-MS/MS
# Type: in vivo, human
# RUN CONDITIONS: adults
One number for each entry, in ng/mL/mg/kg.

Check out these entries, answers already filled in.
CC(C)(C)c1nc(-c2cccc(NS(=O)(=O)c3c(F)cccc3F)c2F)c(-c2ccnc(N)n2)s1: 28.3
C=CC(=O)Nc1cc(Nc2nccc(-c3c[nH]c4ccccc34)n2)c(OC)cc1N(C)CCN(C)C: 25.8

Please give Dose–weight-adjusted mean concentration, item by item, for the list that follows.
1. CC(=O)Nc1cccc(-n2c(=O)n(C3CC3)c(=O)c3c(Nc4ccc(I)cc4F)n(C)c(=O)c(C)c32)c1
2. COC(=O)N[C@@H](C)CNc1nccc(-c2cn(C(C)C)nc2-c2cc(Cl)cc(NS(C)(=O)=O)c2F)n1

1: 443.8; 2: 3.4

* * *

# ASSAY DETAILS: Therapeutic drug monitoring: steady-state residual plasma concentrations by LC-MS/MS
# Format: in vivo, human
# RUN CONDITIONS: adults; residual plasma concentration at steady state
RESULT TYPE: Median concentration (ng/mL)
One number for each entry, in ng/mL.

Parameters: items (list). Returns: Median concentration for each item.
1. CC(=O)Nc1cccc(-n2c(=O)n(C3CC3)c(=O)c3c(Nc4ccc(I)cc4F)n(C)c(=O)c(C)c32)c1
2. CC(C)(C)c1nc(-c2cccc(NS(=O)(=O)c3c(F)cccc3F)c2F)c(-c2ccnc(N)n2)s1
3. O=C(c1ccc(F)c(F)c1Nc1ccc(I)cc1F)N1CC(O)([C@@H]2CCCCN2)C1

[11, 53.5, 70]

For each of the items listed, what is its Median concentration?
1. CCc1cc2c(cc1N1CCC(N3CCOCC3)CC1)C(C)(C)c1[nH]c3cc(C#N)ccc3c1C2=O
2. C=CC(=O)Nc1cc(Nc2nccc(-c3c[nH]c4ccccc34)n2)c(OC)cc1N(C)CCN(C)C

346
25

Please report Median concentration for every entry that follows.
1. Cn1cnc2c(F)c(Nc3ccc(Br)cc3F)c(C(=O)NOCCO)cc21
2. COC(=O)N[C@@H](C)CNc1nccc(-c2cn(C(C)C)nc2-c2cc(Cl)cc(NS(C)(=O)=O)c2F)n1
3. C=CC(=O)Nc1cc(Nc2nccc(-c3cn(C)c4ccccc34)n2)c(OC)cc1N(C)CCN(C)C

1: 52; 2: 15; 3: 207

* * *

# ASSAY DETAILS: Therapeutic drug monitoring: steady-state residual plasma concentrations by LC-MS/MS
# Format: in vivo, human
# RUN CONDITIONS: adults
hey, just use 1 if measured Dose–weight-adjusted median concentration is less than 20 ng/mL/mg/kg, otherwise 0

Recorded results for 2 compounds are shown here.
CC(=O)Nc1cccc(-n2c(=O)n(C3CC3)c(=O)c3c(Nc4ccc(I)cc4F)n(C)c(=O)c(C)c32)c1: 0
Cn1cnc2c(F)c(Nc3ccc(Br)cc3F)c(C(=O)NOCCO)cc21: 0

# check: Dose–weight-adjusted median concentration < 20 ng/mL/mg/kg for C=CC(=O)Nc1cc(Nc2nccc(-c3c[nH]c4ccccc34)n2)c(OC)cc1N(C)CCN(C)C
0

For CCc1cc2c(cc1N1CCC(N3CCOCC3)CC1)C(C)(C)c1[nH]c3cc(C#N)ccc3c1C2=O , is the recorded Dose–weight-adjusted median concentration below the cut-off of 20 ng/mL/mg/kg?
1

Please determine if C=CC(=O)Nc1cc(Nc2nccc(-c3cn(C)c4ccccc34)n2)c(OC)cc1N(C)CCN(C)C is below 20 ng/mL/mg/kg in terms of Dose–weight-adjusted median concentration.
0

Confirm or reject: Dose–weight-adjusted median concentration of CC(C)(C)c1nc(-c2cccc(NS(=O)(=O)c3c(F)cccc3F)c2F)c(-c2ccnc(N)n2)s1 lies strictly below 20 ng/mL/mg/kg
1

Lab note: confirm whether the reported Dose–weight-adjusted median concentration for this compound is below 20 ng/mL/mg/kg, equality not counting. compound: O=C(c1ccc(F)c(F)c1Nc1ccc(I)cc1F)N1CC(O)([C@@H]2CCCCN2)C1
0

Strictly below 20 ng/mL/mg/kg in Dose–weight-adjusted median concentration? COC(=O)N[C@@H](C)CNc1nccc(-c2cn(C(C)C)nc2-c2cc(Cl)cc(NS(C)(=O)=O)c2F)n1
1

* * *

I'd be grateful if you could share measured Dose–weight-adjusted mean concentration for these entries.
# ASSAY DETAILS: Therapeutic drug monitoring: steady-state residual plasma concentrations by LC-MS/MS
# Type: in vivo, human
# RUN CONDITIONS: children
Give bare numbers, in ng/mL/mg/kg.

Here are 3 compounds together with their reported answers.
CC(C)(C)c1nc(-c2cccc(NS(=O)(=O)c3c(F)cccc3F)c2F)c(-c2ccnc(N)n2)s1 [Dabrafenib, dabrafenib]: 62.3
O=C(c1ccc(F)c(F)c1Nc1ccc(I)cc1F)N1CC(O)([C@@H]2CCCCN2)C1 [Cobimetinib, cobimetinib]: 85.4
CC(=O)Nc1cccc(-n2c(=O)n(C3CC3)c(=O)c3c(Nc4ccc(I)cc4F)n(C)c(=O)c(C)c32)c1 [Trametinib, trametinib]: 578.4

Item Cn1cnc2c(F)c(Nc3ccc(Br)cc3F)c(C(=O)NOCCO)cc21 [Binimetinib, binimetinib] has what recorded Dose–weight-adjusted mean concentration?
17.5

* * *

# ASSAY DETAILS: Therapeutic drug monitoring: steady-state residual plasma concentrations by LC-MS/MS
# Format: in vivo, human
# RUN CONDITIONS: children; residual plasma concentration at steady state
RESULT TYPE: Mean concentration (ng/mL)
Numbers only, in ng/mL.

Cn1cnc2c(F)c(Nc3ccc(Br)cc3F)c(C(=O)NOCCO)cc21: 120
O=C(c1ccc(F)c(F)c1Nc1ccc(I)cc1F)N1CC(O)([C@@H]2CCCCN2)C1: 96.3
CC(C)(C)c1nc(-c2cccc(NS(=O)(=O)c3c(F)cccc3F)c2F)c(-c2ccnc(N)n2)s1: 102.3

Moving on to another molecule below.
What does the data say about its Mean concentration? Entry: CC(=O)Nc1cccc(-n2c(=O)n(C3CC3)c(=O)c3c(Nc4ccc(I)cc4F)n(C)c(=O)c(C)c32)c1
12.6

* * *

# ASSAY DETAILS: Therapeutic drug monitoring: steady-state residual plasma concentrations by LC-MS/MS
# Assay type: in vivo, human
# RUN CONDITIONS: adults; residual plasma concentration at steady state
Rule: Mean concentration of 30 ng/mL or more gives y; anything lower gives n.

CC(=O)Nc1cccc(-n2c(=O)n(C3CC3)c(=O)c3c(Nc4ccc(I)cc4F)n(C)c(=O)c(C)c32)c1: n
CC(C)(C)c1nc(-c2cccc(NS(=O)(=O)c3c(F)cccc3F)c2F)c(-c2ccnc(N)n2)s1: y

# bool: Mean concentration of C=CC(=O)Nc1cc(Nc2nccc(-c3c[nH]c4ccccc34)n2)c(OC)cc1N(C)CCN(C)C >= 30 ng/mL
y

State whether the measured Mean concentration reaches 30 ng/mL, counting equality as reaching it, for COC(=O)N[C@@H](C)CNc1nccc(-c2cn(C(C)C)nc2-c2cc(Cl)cc(NS(C)(=O)=O)c2F)n1
n

Item CCc1cc2c(cc1N1CCC(N3CCOCC3)CC1)C(C)(C)c1[nH]c3cc(C#N)ccc3c1C2=O with Mean concentration of 30 ng/mL or above?
y

Determine whether measured Mean concentration meets or exceeds 30 ng/mL for O=C(c1ccc(F)c(F)c1Nc1ccc(I)cc1F)N1CC(O)([C@@H]2CCCCN2)C1
y

Given the entry Cn1cnc2c(F)c(Nc3ccc(Br)cc3F)c(C(=O)NOCCO)cc21 , answer whether its Mean concentration meets or surpasses 30 ng/mL.
y

Please indicate if the recorded Mean concentration for C=CC(=O)Nc1cc(Nc2nccc(-c3cn(C)c4ccccc34)n2)c(OC)cc1N(C)CCN(C)C meets or exceeds 30 ng/mL.
y
